target: human full-length recombinant PKC βII (Homo sapiens); construct: Active human full-length recombinant PKC βII; purchased Invitrogen GmbH, Darmstadt, Germany; assay: Determination of PKC βII inhibition (Caliper mobility-shift kinase assay); format: biochemical; settings: example compounds at a final concentration of 1.14 μM (±0.15 μM); 60 min incubation at 32° C.
property label: inhibition at 1.14 µM (%)

Below, 4 molecules whose answers are already recorded.
[
  {
    "molecule": "O=C(N[C@H]1CN2CCC1CC2)c1cc(-c2ccc(O)cc2)nc2[nH]ncc12",
    "unit string": "%",
    "inhibition at 1.14 µM": 72
  },
  {
    "molecule": "O=C(c1cc(-c2ccc(O)cc2)nc2[nH]ncc12)N1CC2CC1CN2 (centres unmarked)",
    "unit string": "%",
    "inhibition at 1.14 µM": 81
  },
  {
    "molecule": "N[C@H]1CC[C@H](CNC(=O)c2cc(-c3ccc(O)cc3)nc3[nH]ncc23)CC1",
    "unit string": "%",
    "inhibition at 1.14 µM": 87
  },
  {
    "molecule": "CC1CCN(C2CCN(C(=O)c3cc(-c4ccc(O)cc4)nc4[nH]ncc34)C2)CC1 (centres unmarked)",
    "unit string": "%",
    "inhibition at 1.14 µM": 34
  }
]

(1) NC1CCCN(C(=O)c2cc(-c3ccc(O)cc3)nc3[nH]ncc23)C1 (centres unmarked)
(2) NC1CN(C(=O)c2cc(-c3ccc(O)cc3)nc3[nH]ncc23)C1
Problem: Between the entries labeled 1 and 2 , whose measured inhibition at 1.14 µM is lower? Let me know the label of the one you choose.
Solution: 2

---

molecular target: human full-length recombinant PKC βII (Homo sapiens, UniProt P05771); construct: Active human full-length recombinant PKC βII; purchased Invitrogen GmbH, Darmstadt, Germany; assay: Determination of PKC βII inhibition (Caliper mobility-shift kinase assay); assay type: biochemical; settings: example compounds at a final concentration of 1.14 μM (±0.15 μM); 60 min incubation at 32° C.
Sequence (P05771 1-673 isoform P05771-2): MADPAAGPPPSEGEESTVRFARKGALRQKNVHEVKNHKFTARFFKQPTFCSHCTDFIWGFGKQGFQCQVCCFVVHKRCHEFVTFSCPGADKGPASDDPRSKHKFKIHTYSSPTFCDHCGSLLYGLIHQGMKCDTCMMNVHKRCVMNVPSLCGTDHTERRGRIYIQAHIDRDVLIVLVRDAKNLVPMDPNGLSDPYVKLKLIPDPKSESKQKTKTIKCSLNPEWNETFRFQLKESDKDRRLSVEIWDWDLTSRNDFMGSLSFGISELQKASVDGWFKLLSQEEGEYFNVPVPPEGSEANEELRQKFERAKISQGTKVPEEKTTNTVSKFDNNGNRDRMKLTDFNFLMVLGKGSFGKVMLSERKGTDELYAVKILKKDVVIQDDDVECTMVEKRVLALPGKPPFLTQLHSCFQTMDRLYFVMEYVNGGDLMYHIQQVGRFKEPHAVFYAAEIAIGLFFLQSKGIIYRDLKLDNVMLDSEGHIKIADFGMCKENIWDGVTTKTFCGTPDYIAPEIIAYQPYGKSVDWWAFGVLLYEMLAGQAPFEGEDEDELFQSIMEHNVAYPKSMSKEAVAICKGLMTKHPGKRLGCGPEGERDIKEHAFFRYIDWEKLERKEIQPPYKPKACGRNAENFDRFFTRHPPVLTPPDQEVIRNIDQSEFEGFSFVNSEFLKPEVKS
property label: inhibition at 1.14 µM (%)

[
  {
    "molecule": "CN(C(=O)c1cc(-c2ccc(O)cc2)nc2[nH]ncc12)C1CCNCC1 [Example 42]",
    "inhibition at 1.14 µM [%]": 39
  },
  {
    "molecule": "N[C@H]1C[C@H](NC(=O)c2cc(-c3ccc(O)cc3)nc3[nH]ncc23)C1 [Example 30]",
    "inhibition at 1.14 µM [%]": 68
  },
  {
    "molecule": "CN(C)[C@H]1CCN(C(=O)c2cc(-c3ccc(O)cc3)nc3[nH]ncc23)C1 [Example 55]",
    "inhibition at 1.14 µM [%]": 47
  },
  {
    "molecule": "N[C@@H]1CCN(C(=O)c2cc(-c3ccc(O)cc3)nc3[nH]ncc23)C1 [Example 16]",
    "inhibition at 1.14 µM [%]": 66
  },
  {
    "molecule": "O=C(c1cc(-c2ccc(O)cc2)nc2[nH]ncc12)N1CCC2(CC1)CNc1ccccc12 [Example 49]",
    "inhibition at 1.14 µM [%]": 28
  },
  {
    "molecule": "O=C(c1cc(-c2ccc(O)cc2)nc2[nH]ncc12)N1CCCNCC1 [Example 7]",
    "inhibition at 1.14 µM [%]": 84
  }
]

(a) O=C(c1cc(-c2ccc(O)cc2)nc2[nH]ncc12)N1CCC2(CCNCC2)CC1 [Example 44]
(b) NC1CC(NC(=O)c2cc(-c3ccc(O)cc3)nc3[nH]ncc23)C1 (stereo not drawn) [Example 14]
Problem: // max by inhibition at 1.14 µM over [ a , b ] Let me know the label of the one you choose.
Solution: b
(b: 69%, a: 44%)

(P) O=C1CCC(CNC(=O)c2cc(-c3ccc(O)cc3)nc3[nH]ncc23)N1 (stereo not drawn) [Example 63]
(Q) CC1(C)CC(NC(=O)c2cc(-c3ccc(O)cc3)nc3[nH]ncc23)CC(C)(C)N1 [Example 1]
Problem: // max by inhibition at 1.14 µM over [ P , Q ] Let me know the label of the one you choose.
Solution: P
(P: 48%, Q: 18%)

(1) O=C(c1cc(-c2ccc(O)cc2)nc2[nH]ncc12)N1CCC2(CC1)CNCCO2 [Example 26]
(2) CC(C)C1CN(C(=O)c2cc(-c3ccc(O)cc3F)nc3[nH]ncc23)C(C)(C)CN1 (stereo not drawn) [Example 15]
Problem: // max by inhibition at 1.14 µM over [ 1 , 2 ] Let me know the label of the one you choose.
Solution: 2
(2: 94%, 1: 36%)

---

Biological target: human full-length recombinant PKC βII (Homo sapiens, UniProt P05771)
Construct: Active human full-length recombinant PKC βII; purchased Invitrogen GmbH, Darmstadt, Germany
Test: Determination of PKC βII inhibition (Caliper mobility-shift kinase assay)
Format: biochemical
Conditions: example compounds at a final concentration of 1.14 μM (±0.15 μM); 60 min incubation at 32° C.
Method: Determination of PKC 3H Inhibition PKC βII inhibition was determined according to the following protocol: […] Test compounds were diluted to three times the test concentration in buffer 1 (30 mM Hepes-NaOH, pH 7.4, 0.01% Pluronic F-68 and 3% (v/v) DMSO). […] Fractional turnover (R) was determined as the height of the peak of the phosphorylated peptide product divided by the sum of the unphosphorylated substrate and phosphorylated product peak heights. […]
property label: inhibition at 1.14 µM (%)

Below, 5 compounds whose answers are already recorded.
[
  {
    "compound": "O=C(c1cc(-c2ccc(O)cc2)nc2[nH]ncc12)N1CCN(C(=O)C2CCCO2)CC1 (centres unmarked)",
    "inhibition at 1.14 µM (%)": 22
  },
  {
    "compound": "O=C(c1cc(-c2ccc(O)cc2)nc2[nH]ncc12)N1CCC2(CCNC2)CC1",
    "inhibition at 1.14 µM (%)": 52
  },
  {
    "compound": "CN1CCN(C(=O)c2cc(-c3ccc(O)cc3)nc3[nH]ncc23)CC1",
    "inhibition at 1.14 µM (%)": 38
  },
  {
    "compound": "O=C(c1cc(-c2ccc(O)cc2)nc2[nH]ncc12)N1CC2(CCNCC2)C1",
    "inhibition at 1.14 µM (%)": 77
  },
  {
    "compound": "O=C(c1cc(-c2ccc(O)cc2)nc2[nH]ncc12)N1CC2CNCC2C1 (centres unmarked)",
    "inhibition at 1.14 µM (%)": 39
  }
]

(P) CCN1CCCN(C(=O)c2cc(-c3ccc(O)cc3)nc3[nH]ncc23)CC1
(Q) CN1CC(NC(=O)c2cc(-c3ccc(O)cc3)nc3[nH]ncc23)C1
(R) O=C(c1cc(-c2ccc(O)cc2)nc2[nH]ncc12)N1CCN(C(=O)C2CC2)CC1
Problem: Descending sort on inhibition at 1.14 µM required. Hello, could you send the labels back in the order asked? Thank you.
Solution: Q, P, R
(Q: 73%, P: 45%, R: 28%)

---

target: human full-length recombinant PKC βII (Homo sapiens, UniProt P05771); construct: Active human full-length recombinant PKC βII; purchased Invitrogen GmbH, Darmstadt, Germany; experiment: Determination of PKC βII inhibition (Caliper mobility-shift kinase assay); assay type: biochemical; details: example compounds at a final concentration of 1.14 μM (±0.15 μM); 60 min incubation at 32° C.
property label: inhibition at 1.14 µM (%)

[
  {
    "compound": "NC1CCN(C(=O)c2cc(-c3ccc(O)cc3)nc3[nH]ncc23)CC1 [Example 38]",
    "value measured": 60
  },
  {
    "compound": "O=C(c1cc(-c2ccc(O)cc2)nc2[nH]ncc12)N1CCC2(CCNCC2)C1 [Example 22]",
    "value measured": 42
  },
  {
    "compound": "CC(=O)N1CCCN(C(=O)c2cc(-c3ccc(O)cc3)nc3[nH]ncc23)CC1 [Example 59]",
    "value measured": 48
  },
  {
    "compound": "CN1CCC(NC(=O)c2cc(-c3ccc(O)cc3)nc3[nH]ncc23)CC1 [Example 66]",
    "value measured": 59
  }
]

(1) O=C(NC1CCNCC1)c1cc(-c2ccc(O)cc2)nc2[nH]ncc12 [Example 2]
(2) O=C(c1cc(-c2ccc(O)cc2)nc2[nH]ncc12)N1CCC2(CCCNC2)C1 (stereo not drawn) [Example 23]
(3) O=C(NC1CCNC1)c1cc(-c2ccc(O)cc2)nc2[nH]ncc12 (stereo not drawn) [Example 5]
Problem: Descending sort on inhibition at 1.14 µM required. Hello, could you send the labels back in the order asked? Thank you.
Solution: 3, 2, 1
(3: 85%, 2: 52%, 1: 27%)

(1) O=C(c1cc(-c2ccc(O)cc2)nc2[nH]ncc12)N1CCC2(CC1)CNC2 [Example 21]
(2) CN1CCN(C(=O)c2cc(-c3ccc(O)cc3)nc3[nH]ncc23)CC1=O [Example 76]
Problem: // max by inhibition at 1.14 µM over [ 1 , 2 ] Let me know the label of the one you choose.
Solution: 1
